The following compounds are listed with their measured log2 fold change values.
Molecular target: YOD1 (UniProt Q5VVQ6)
Sequence (Q5VVQ6 whole entry, looked up): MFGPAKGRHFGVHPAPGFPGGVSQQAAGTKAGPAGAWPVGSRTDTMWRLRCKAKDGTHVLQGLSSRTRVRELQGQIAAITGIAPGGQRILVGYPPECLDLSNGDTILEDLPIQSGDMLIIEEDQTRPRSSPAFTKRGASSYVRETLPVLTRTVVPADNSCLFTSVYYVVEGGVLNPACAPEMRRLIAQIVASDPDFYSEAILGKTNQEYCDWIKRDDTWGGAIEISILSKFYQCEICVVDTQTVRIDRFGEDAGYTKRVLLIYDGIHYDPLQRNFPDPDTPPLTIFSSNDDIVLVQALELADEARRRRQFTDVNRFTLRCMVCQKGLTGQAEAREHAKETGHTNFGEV
Assay: log2 fold change, soluble protein after heating vs DMSO (PISA); higher = thermal stabilisation; K562 cells, 10 uM, 30 min; active = over 0.2 and 3.5 SD of the protein, either way, in both replicates (recomputed)
Targets with a hit are over-represented here; the source holds about 7,900 in all. About 0.6% of all pairs of compound and target were hits.
Please give the numeric answer without any surrounding text.

Recorded results for 3 compounds are shown here.
> print(dat)
                                   compound          target.system  recorded.value
1  CC(C)C[C@@H](C=O)NC(=O)[C@H](CC(C)C)NC(=O)[C@H](CC(C)C)NC(=O)OCc1ccccc1  YOD1 (UniProt Q5VVQ6)           0.045
2  CC(C)N(C[C@H]1O[C@@H](n2cnc3c(N)ncnc32)[C@H](O)[C@@H]1O)[C@H]1C[C@@H](CCc2nc3cc(C(C)(C)C)ccc3[nH]2)C1 [pinometostat]  YOD1 (UniProt Q5VVQ6)          -0.021
3  Cc1cccc(-c2[nH]c(C(C)(C)C)nc2-c2ccc3nccnc3c2)n1  YOD1 (UniProt Q5VVQ6)           0.026

-- ask What value of log2 fold change has been reported for the following compound? O=C1NC(=O)C(c2cnc3ccccn23)=C1c1cn2c3c(cc(F)cc13)CN(C(=O)N1CCCCC1)CC2
-- reply -0.079

====

Target: ZDHHC17 (UniProt Q8IUH5)
Sequence (Q8IUH5 whole entry, looked up): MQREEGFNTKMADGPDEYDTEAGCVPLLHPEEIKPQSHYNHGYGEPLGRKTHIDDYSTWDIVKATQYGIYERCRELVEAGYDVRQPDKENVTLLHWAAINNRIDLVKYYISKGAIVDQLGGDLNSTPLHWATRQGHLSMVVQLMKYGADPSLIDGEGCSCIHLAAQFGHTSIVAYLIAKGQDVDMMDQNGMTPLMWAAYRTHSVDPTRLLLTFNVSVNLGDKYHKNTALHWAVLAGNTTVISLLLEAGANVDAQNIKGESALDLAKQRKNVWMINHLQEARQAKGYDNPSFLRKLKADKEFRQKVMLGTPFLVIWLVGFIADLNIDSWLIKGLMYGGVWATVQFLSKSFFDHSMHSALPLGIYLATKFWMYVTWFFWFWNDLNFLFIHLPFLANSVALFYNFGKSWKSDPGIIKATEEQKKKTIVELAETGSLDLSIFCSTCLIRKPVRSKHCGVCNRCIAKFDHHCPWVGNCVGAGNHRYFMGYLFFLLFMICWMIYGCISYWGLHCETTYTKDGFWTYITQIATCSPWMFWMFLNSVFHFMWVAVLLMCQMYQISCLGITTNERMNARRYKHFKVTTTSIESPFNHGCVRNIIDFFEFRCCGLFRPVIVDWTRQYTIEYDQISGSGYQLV
Assay: log2 fold change, soluble protein after heating vs DMSO (PISA); higher = thermal stabilisation; K562 cells, 10 uM, 30 min; active = over 0.2 and 3.5 SD of the protein, either way, in both replicates (recomputed)
The full data set covers some 7,900 targets. This sample favours those with a hit. About 0.6% of all pairs of compound and target were hits.
The following molecules are listed with their measured log2 fold change values.

Recorded results for 2 molecules are shown here.
> print(dat)
                                   molecule             target.system          endpoint     recorded.value
1  COc1cc(C(=O)O)ccc1NC(=O)[C@@H]1N[C@@H](CC(C)(C)C)[C@](C#N)(c2ccc(Cl)cc2F)[C@H]1c1cccc(Cl)c1F  ZDHHC17 (UniProt Q8IUH5)  log2 fold change  -0.048 (inactive)
2          Cc1ccc2c(=O)c3ccccc3n(CCCN)c2c1C  ZDHHC17 (UniProt Q8IUH5)  log2 fold change   0.037 (inactive)

-- ask What value of log2 fold change has been reported for the following molecule? C[C@@H]1COCCN1c1cc(C2(S(C)(=O)=O)CC2)nc(-c2cccc3[nH]ccc23)n1
-- reply 0.005 (inactive)

====

Molecular target: ZBTB43 (UniProt O43298)
Sequence (O43298 whole entry, looked up): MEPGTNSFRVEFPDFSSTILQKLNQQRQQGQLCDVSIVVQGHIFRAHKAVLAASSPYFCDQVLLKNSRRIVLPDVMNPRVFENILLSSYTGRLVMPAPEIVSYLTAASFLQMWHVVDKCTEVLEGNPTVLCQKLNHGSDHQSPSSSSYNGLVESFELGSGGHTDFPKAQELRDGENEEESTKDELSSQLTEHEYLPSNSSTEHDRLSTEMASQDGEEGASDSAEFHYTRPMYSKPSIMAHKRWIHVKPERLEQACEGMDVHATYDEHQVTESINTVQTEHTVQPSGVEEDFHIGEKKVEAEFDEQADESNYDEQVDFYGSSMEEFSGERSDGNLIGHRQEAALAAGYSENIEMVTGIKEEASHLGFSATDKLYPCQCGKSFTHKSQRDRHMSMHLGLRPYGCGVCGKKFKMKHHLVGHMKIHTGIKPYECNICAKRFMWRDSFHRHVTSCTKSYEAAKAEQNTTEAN
Assay: log2 fold change, soluble protein after heating vs DMSO (PISA); higher = thermal stabilisation; K562 cells, 10 uM, 30 min; active = over 0.2 and 3.5 SD of the protein, either way, in both replicates (recomputed)
Of roughly 7,900 targets only a part is listed; those with a hit were picked by preference. About 0.6% of all pairs of compound and target were hits.
The following compounds are listed with their measured log2 fold change values.
Please give the numeric answer without any surrounding text.

Sample smiles	log2 fold change
CN1CCc2c(c3ccccc3n2Cc2ccc(C(=O)NO)cc2)C1	-0.018

-- ask What value of log2 fold change has been reported for the following compound? CNC(=O)c1ccccc1Nc1nc(Nc2ccc(N3CCOCC3)cc2OC)ncc1Cl
-- reply -0.007

-- ask What value of log2 fold change has been reported for the following compound? COC(=O)N[C@@H](C)CNc1nccc(-c2cn(C(C)C)nc2-c2cc(Cl)cc(NS(C)(=O)=O)c2F)n1
-- reply 0.065

-- ask What value of log2 fold change has been reported for the following compound? C[C@H](Nc1ncnc2nc[nH]c12)c1cc2cccc(Cl)c2c(=O)n1-c1ccccc1
-- reply 0.027

-- ask What value of log2 fold change has been reported for the following compound? Cc1cccc(CC(=O)N2CCc3c2ccc(-c2cn(C)c4ncnc(N)c24)c3F)n1
-- reply -0.025

-- ask What value of log2 fold change has been reported for the following compound? CC[C@H](C)n1cc(C)c2c(C(=O)NCc3c(C)cc(C)[nH]c3=O)cc(-c3ccc(N4CCNCC4)nc3)cc21
-- reply -0.187

-- ask What value of log2 fold change has been reported for the following compound? O=C1c2ccccc2-c2n[nH]c3cccc1c23
-- reply -0.161
